The following sequences are listed with their measured self-aminoacylation values.
test system: biotinyl-Leu-oxazolone; test: self-aminoacylation, catalytic enhancement (BLO) (fold over background); higher = more active; k-Seq, kA / k0A0; sequences stand for … in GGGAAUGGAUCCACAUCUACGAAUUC…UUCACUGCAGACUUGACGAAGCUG
Fewer inactive variants are shown than the library holds.
RESULT_TYPE: self-aminoacylation

1) AUUCACCUUUGUCAUCGGGUG [Fam2.2 aminoacylation ribozyme variant]; 5.41
2) CCACAAUUCAAGCCAUCGGUC [Fam1B.1 aminoacylation ribozyme variant]; 1.59
3) AAGUUAGCUAAUAGUCGCAUG [Fam3.1 aminoacylation ribozyme variant]; 1.97
4) AUUAACCUAGGUCAUCGGGCG [Fam2.2 aminoacylation ribozyme variant]; 5.44
5) CUACACUUCAAGCAGUCGGUC [Fam1B.1 aminoacylation ribozyme variant]; 0.741
6) CCACCCUUGAAGCAAUCGGUC [Fam1B.1 aminoacylation ribozyme variant]; 1.12
7) GUUUACCUAGGUCAUCGGGUG [Fam2.2 aminoacylation ribozyme variant]; 39.7
8) CUACUUCAAACGACCGGUCUG [Fam1A.1 aminoacylation ribozyme variant]; 0.621
9) AUUACCCUGGUCAUCAAGUGA [Fam2.1 aminoacylation ribozyme variant]; 2.25
10) AUUCACCUAAGGCAUCGGGUG [Fam2.2 aminoacylation ribozyme variant]; 4.9
11) AUUCACCAAGGUCAUCGGGUU [Fam2.2 aminoacylation ribozyme variant]; 2.21
12) AAGUUUGCUAAUAGUCCCCAG [Fam3.1 aminoacylation ribozyme variant]; 0.928
13) AAGUUUUCUAAUCGUCGCAAG [Fam3.1 aminoacylation ribozyme variant]; 1.79
14) AAUAUCCUGGUCAUCGAGUGA [Fam2.1 aminoacylation ribozyme variant]; 8.92
15) UUUCACCUAGGUCAUCGGGUA [Fam2.2 aminoacylation ribozyme variant]; 36.1
16) AUGAACCUGGUCAUCGAGUGA [Fam2.1 aminoacylation ribozyme variant]; 6.61
17) AUUCACCUAAGUCAUAGGGUG [Fam2.2 aminoacylation ribozyme variant]; 1.92
18) AUUCACCGAGGCCAUCGGGUG [Fam2.2 aminoacylation ribozyme variant]; 6.39

Origin of the recorded values: the supplement of paper PMC9233669
